# Lookup of reported Ki keyed by entry
target: Mu-type opioid receptor (Homo sapiens, UniProt P35372); test: Displacement of [3H]DAMGO from human recombinant mu opioid receptor expressed in CHO cells after 2 hrs by liquid scintillation counting
Sequence (P35372 whole entry): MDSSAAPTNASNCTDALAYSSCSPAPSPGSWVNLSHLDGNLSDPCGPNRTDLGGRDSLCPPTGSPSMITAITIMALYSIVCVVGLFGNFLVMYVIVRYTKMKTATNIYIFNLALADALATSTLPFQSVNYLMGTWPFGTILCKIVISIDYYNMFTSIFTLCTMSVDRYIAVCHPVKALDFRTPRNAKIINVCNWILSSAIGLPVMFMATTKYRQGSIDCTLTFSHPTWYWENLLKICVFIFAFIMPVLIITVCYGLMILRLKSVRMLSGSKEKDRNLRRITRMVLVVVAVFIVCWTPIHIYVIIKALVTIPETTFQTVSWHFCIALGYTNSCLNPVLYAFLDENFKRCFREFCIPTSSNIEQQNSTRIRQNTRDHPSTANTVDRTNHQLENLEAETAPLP

See these solved cases before continuing.
[
  {
    "SUBSTANCE_SMILES": "COC(=O)[C@@H]1C[C@H](OC(C)=O)C(=O)[C@H]2[C@@]1(C)CC[C@H]1C(=O)O[C@H](C(=O)c3cccc(O)c3)C[C@]21C",
    "TEST_RESULT": "> 1 µM"
  },
  {
    "SUBSTANCE_SMILES": "COC(=O)[C@@H]1C[C@H](OC(C)=O)C(=O)[C@H]2[C@@]1(C)CC[C@H]1C(=O)O[C@H](C(=O)c3ccco3)C[C@]21C",
    "TEST_RESULT": "9.8 µM"
  },
  {
    "SUBSTANCE_SMILES": "C/C=C\\C(=O)[C@@H]1C[C@]2(C)[C@H]3C(=O)[C@@H](OC(C)=O)C[C@@H](C(=O)OC)[C@]3(C)CC[C@H]2C(=O)O1",
    "TEST_RESULT": "> 1.7 µM"
  },
  {
    "SUBSTANCE_SMILES": "COC(=O)[C@@H]1C[C@H](OC(C)=O)C(=O)[C@H]2[C@@]1(C)CC[C@H]1C(=O)O[C@H](C(=O)c3csc4ccccc34)C[C@]21C",
    "TEST_RESULT": "> 1 µM"
  }
]

For COC(=O)[C@@H]1C[C@H](OC(C)=O)C(=O)[C@H]2[C@@]1(C)CC[C@H]1C(=O)O[C@H](C(=O)c3cccc(C(N)=O)c3)C[C@]21C on Mu-type opioid receptor (Homo sapiens, UniProt P35372), measured Ki was > 10 µM

The compound COC(=O)[C@@H]1C[C@H](OC(C)=O)C(=O)[C@H]2[C@@]1(C)CC[C@H]1C(=O)O[C@H](C(=O)c3ccccc3OC)C[C@]21C , tested on Mu-type opioid receptor (Homo sapiens, UniProt P35372), showed Ki of > 10 µM

Summary: COC(=O)[C@@H]1C[C@H](OC(C)=O)C(=O)[C@H]2[C@@]1(C)CC[C@H]1C(=O)O[C@H](C(=O)c3cc4ccccc4s3)C[C@]21C , Mu-type opioid receptor (Homo sapiens, UniProt P35372), Ki = > 10 µM

Form: item COC(=O)[C@@H]1C[C@H](OC(C)=O)C(=O)[C@H]2[C@@]1(C)CC[C@H]1C(=O)O[C@H](c3ccco3)C[C@]21C ; test system Mu-type opioid receptor (Homo sapiens, UniProt P35372); Ki: > 1 µM

* * *

target: UniProt:P41145; test: Displacement of [3H]U69593 from human recombinant kappa opioid receptor expressed in CHO cells after 2 hrs by liquid scintillation counting
Sequence (P41145 whole entry): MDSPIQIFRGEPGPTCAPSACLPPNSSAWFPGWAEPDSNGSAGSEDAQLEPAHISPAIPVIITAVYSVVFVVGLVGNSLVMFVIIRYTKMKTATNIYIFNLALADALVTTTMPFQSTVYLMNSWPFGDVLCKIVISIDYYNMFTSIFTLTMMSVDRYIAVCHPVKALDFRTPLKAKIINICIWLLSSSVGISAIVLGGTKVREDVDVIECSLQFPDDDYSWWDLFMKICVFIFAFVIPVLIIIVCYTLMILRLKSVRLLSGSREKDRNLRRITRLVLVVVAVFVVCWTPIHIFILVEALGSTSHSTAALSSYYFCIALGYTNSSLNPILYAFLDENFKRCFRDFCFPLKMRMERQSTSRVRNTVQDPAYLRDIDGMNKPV
Label scheme for Ki: bin A = under 100 nM, bin B = from 100 nM up to 500 nM, bin C = 500 nM and over

[
  {
    "SUBSTANCE_SMILES": "COC(=O)[C@@H]1C[C@H](OC(C)=O)C(=O)[C@H]2[C@@]1(C)CC[C@H]1C(=O)O[C@H](C(=O)c3cccc(C(F)(F)F)c3)C[C@]21C",
    "CATEGORY": "bin C"
  },
  {
    "SUBSTANCE_SMILES": "COC(=O)[C@@H]1C[C@H](OC(C)=O)C(=O)[C@H]2[C@@]1(C)CC[C@H]1C(=O)O[C@H](C(=O)c3cccc(OC)c3)C[C@]21C",
    "CATEGORY": "bin B"
  },
  {
    "SUBSTANCE_SMILES": "COC(=O)[C@@H]1C[C@H](OC(C)=O)C(=O)[C@H]2[C@@]1(C)CC[C@H]1C(=O)O[C@H](C(=O)c3cccc(OC(F)(F)F)c3)C[C@]21C",
    "CATEGORY": "bin C"
  },
  {
    "SUBSTANCE_SMILES": "C/C=C\\C(=O)[C@@H]1C[C@]2(C)[C@H]3C(=O)[C@@H](OC(C)=O)C[C@@H](C(=O)OC)[C@]3(C)CC[C@H]2C(=O)O1",
    "CATEGORY": "bin B"
  }
]

QUERY: Hey, which category is COC(=O)[C@@H]1C[C@H](OC(C)=O)C(=O)[C@H]2[C@@]1(C)CC[C@H]1C(=O)O[C@H](C(=O)c3ccccc3)C[C@]21C in, do you know?
RESULT: bin A

QUERY: Which class is correct for the following compound? COC(=O)[C@@H]1C[C@H](OC(C)=O)C(=O)[C@H]2[C@@]1(C)CC[C@H]1C(=O)O[C@H](C(=O)c3ccc(O)cc3)C[C@]21C
RESULT: bin C

QUERY: State the class of the compound shown: COC(=O)[C@@H]1C[C@H](OC(C)=O)C(=O)[C@H]2[C@@]1(C)CC[C@H]1C(=O)O[C@H](/C=C/c3ccoc3)C[C@]21C
RESULT: bin C
